Molecular target: D(1A) dopamine receptor (Homo sapiens)
Experiment: Antagonist of Human D 1 Dopamine Receptor: qHTS
Settings: HEK293 TREx D1 cells, calcium flux, dopamine EC80; at 10 µM
Hit rate of the full screen: of about 360,000 compounds, about 11,000 (3.1%) were called active. No stated cut-off is given here; in the data, active means activity change below about -30%; inactive means the rest. For the sample, actives were picked, then their nearest neighbours and some compounds at random.
Entry note: the call must match one of active, inactive

How was O=C(c1ccc2c(c1)N(Cc1ccc(Cl)cc1)C(=O)c1ccccc1S2(=O)=O)N1CCCCC1 classified in this test? inactive

Name the outcome recorded for COc1ccc(OC)c(-c2nc(C(N)=O)c3c(n2)n(-c2ccc4c(c2)OCO4)c(=O)n3C)c1 in the assay. inactive

Called result for COc1ccc([C@@H]2[C@@H]3C(=O)N(C(C)(C)C)C(=O)[C@@H]3[C@]3(Cc4ccccc4)C(=O)N(c4cccc(Br)c4)C(=O)N23)cc1 active

What did the test return for Cc1ccc(OCCCCN2CCCCC2)c(Br)c1 ? inactive
